molecular target: SARS-CoV-2 spike S1 protein (SARS-CoV-2, UniProt P0DTC2 16-685)
Examples of binders with documented kon follow.

Worked cases, kon given:
[[record]]
binder = "AB-009108 (antibody, V domains shown) VH: QVQLQESGPGLVKPSETLALTCTVSGDSIINNNFYWGWLRQPPGQGLEWIGSLFHTGSAYYNSSLKSRVRSSVDTARNQISLRLSSVTAADTAVYYCARVNIVSVPAPPGAIEGWFDPWGQGTRVTVSP VL: SYELTQPPSVSVSLGQTARISCSGDALPTKYVHWYQQKAGQAPVVVIFRDTERPSEIPERFSGSSSGTTVTLTISGVQAEDEADYYCQSVDGSGFYVFGSGTKVTVL"
observed_measurement = "134000 M⁻¹ s⁻¹"

[[record]]
binder = "AB-009251 (antibody, V domains shown) V domain 1: QVQLVQSGAEVKKPGASVKVSCKTSGYTFTTFYIHWVRQVPGQGLEWMGIINPDGGSTNYAQEFQARVTMTTDTSTSTAYMELSSLRFEDTAVFYCATSLGAPPGLSPRTGPQRRGPPGFDFWGQGTLITVSA V domain 2: QSVLTQPPSVSGAPGQRVTISCTGSSSNIGAGYDVHWYQQLPGTAPKLLIFDNNNRPSGVPYRFSGSRSGTSASLAITGLQPEDEADYYCQSYDSSLSGRVFGGGTRVTVL"
observed_measurement = "11300 M⁻¹ s⁻¹"

[[record]]
binder = "AB-009731 (antibody, V domains shown) VH: QVQLVQSGAEVKKTGASVKLSCKASGYSLTSYAMHWVRQAPGQRLEWMGWLNGGNGNTKYSQKFQARVTITSDTSARTVYMELSSLTSEDTAVYYCARADHSTYWYGWFDPWGQGTLVTVSS VL: QSVLTQPPSASGTPGQRVTISCSGSTSNIGSNYVFWYQQFPGTAPKLLIYRNDQRPSGVPDRFSASKAGTSASLAISGLRSEDEADYYCTSWDDSLNGPLFGGGTKLTVL"
observed_measurement = "61400 M⁻¹ s⁻¹"

[[record]]
binder = "AB-009280 (antibody, V domains shown) VH: QVQLVESGGGVVQPGRSLRLSCAASGFTFSSYGMHWVRQAPGKGLEWVAVISYDGSNKYYADSVKGRFTISRDNSKNTLYLQMNSLRAEDTAVYYCAKSRGGGYYYYYMDVWGKGTTVTVSS VL: DIQMTQSPSSLSASVGDRVTITCRASQGISNYLAWFQQKPGKAPKSLIYAASSLQSGVPSKFSGSGSGTDFTLTISSLQPEDFATYYCQQYNSYPPTFGQGTKLEIK"
observed_measurement = "26200 M⁻¹ s⁻¹"

[[record]]
binder = "AB-009666 (antibody, V domains shown) VH: EVQLVESGGGLVQPGGSLRLSCAASGFTFSSYDMHWVRQATGKGLEWVSTIGTAGDTYYPGSVKGRFTISRENAKNSLYLQMNSLRAEDTAVYYCARVNYDSSGYPTYWYFDLWGRGTLVTVSS VL: DIQMTQSPSSLSASVGDRVTITCRASQSISRYLNWYQQKPGKAPKLLIYAASSLQSGVPSRFSGSGSGTDFTLTISSLQPEDFATYNCQQSYSSPPWTFGQGTKVEIK"
observed_measurement = "45900 M⁻¹ s⁻¹"


Entry under test: AB-009722 (antibody, V domains shown) VH: QVQLVQSGAEVRKPGSSVKVSCNVSGGIFNSYKITWVRQAPGQGLEWMGGIIAIFGTADYAQRFQGRLSITADESTSTAYMELSSLRSDDTAVYYCTRERFSNYFDPWGQGTLVTVSS VL: EVVLTQSPATLSLSPGERATLSCRASQSVSSFLGWYQQKPGQAPRLLIYDASNRASGIPARFSGSGSGTDFTLTISKLEPEDFAVYYCQQRSRGPSGITFGQGTRLEIK . Its kon was 57300 M⁻¹ s⁻¹

Data provenance is patent US20240327505A1.
